# assayed.target: human ether-à-go-go-related gene (hERG) potassium channel (human)
# test.summary: primary screen, population patch clamp on CHO cells stably expressing hERG; higher = less effect of the substance
The whole screen tested about 310,000 compounds, of which about 2,200 (0.71%) showed an effect of 50% or more. Effects have a minus sign here. This excerpt belongs to a sample that is enriched for strong results.
Assign Y to entries whose hERG current change (%, negative = inhibition) at 1uM meets or exceeds 10%; assign N to the rest.

>>> category_label("O=C(c1cc(F)c(F)cc1Cl)N1CCN(c2ccc([N+](=O)[O-])c3ncccc23)CC1")
"N"
>>> category_label("COc1ccc(F)cc1S(=O)(=O)NCC(c1ccc2c(c1)OCO2)N1CCN(C)CC1 (stereo not shown)")
"N"
>>> category_label("Fc1ccccc1CNc1ccc(Cl)c(Cl)c1")
"Y"
>>> category_label("O=C(c1ccccc1F)N1CCN(c2ccc([N+](=O)[O-])c3ncccc23)CC1")
"N"
>>> category_label("Cc1cc(C(=O)N2CCN(c3ccc([N+](=O)[O-])cc3)CC2)co1")
"N"
>>> category_label("CSc1nc(C)c2c(n1)N(c1ccc(F)cc1)CC2")
"Y"
>>> category_label("Cc1ccc(S(=O)(=O)N2CCCCC2)cc1NC(=O)COC(=O)Cc1c(F)cccc1Cl")
"Y"
>>> category_label("Cc1cc(=O)c(C(=O)O)nn1-c1ccccc1")
"N"
>>> category_label("O=C(c1ccccc1F)N1CCN(c2ccc([N+](=O)[O-])c3cccnc23)CC1")
"N"
>>> category_label("Fc1ccccc1CNc1ccc(Cl)cc1")
"Y"

====

The following compounds are listed with their measured hERG current change (%, negative = inhibition) at 1uM values.
# assayed.target: human ether-à-go-go-related gene (hERG) potassium channel (human)
# test.summary: primary screen, population patch clamp on CHO cells stably expressing hERG; higher = less effect of the substance
Hit rate of the full screen: of about 310,000 compounds, about 2,200 (0.71%) showed an effect of 50% or more. Effects have a minus sign here. The sample holds strong results, similar compounds and a random draw of the others, so the mix is not that of the screen.
reported.property: hERG current change (%, negative = inhibition) at 1uM (%)

>>> measured("Cl.Cn1c(=N)n(CC(O)c2ccco2)c2ccccc21 (stereo not shown)")
1.97
>>> measured("Cc1nc(-c2nnc(SCC(=O)Nc3cc(Cl)cc(Cl)c3)n2C)cs1")
10.6
>>> measured("O=C1C2C3C=CC(C3)C2C(=O)N1CCN1CCN(S(=O)(=O)/C=C/c2ccccc2)CC1 (stereo not shown)")
11
>>> measured("CCN(CC)S(=O)(=O)c1ccc(/C=C/C(=O)OCC(=O)NNC(=O)c2ccc(OC)cc2)cc1")
9.94

====

# hERG current change (%, negative = inhibition) at 1uM listing for each entry below
# assayed.target: human ether-à-go-go-related gene (hERG) potassium channel (human, UniProt Q12809)
# Sequence (Q12809 whole entry, looked up): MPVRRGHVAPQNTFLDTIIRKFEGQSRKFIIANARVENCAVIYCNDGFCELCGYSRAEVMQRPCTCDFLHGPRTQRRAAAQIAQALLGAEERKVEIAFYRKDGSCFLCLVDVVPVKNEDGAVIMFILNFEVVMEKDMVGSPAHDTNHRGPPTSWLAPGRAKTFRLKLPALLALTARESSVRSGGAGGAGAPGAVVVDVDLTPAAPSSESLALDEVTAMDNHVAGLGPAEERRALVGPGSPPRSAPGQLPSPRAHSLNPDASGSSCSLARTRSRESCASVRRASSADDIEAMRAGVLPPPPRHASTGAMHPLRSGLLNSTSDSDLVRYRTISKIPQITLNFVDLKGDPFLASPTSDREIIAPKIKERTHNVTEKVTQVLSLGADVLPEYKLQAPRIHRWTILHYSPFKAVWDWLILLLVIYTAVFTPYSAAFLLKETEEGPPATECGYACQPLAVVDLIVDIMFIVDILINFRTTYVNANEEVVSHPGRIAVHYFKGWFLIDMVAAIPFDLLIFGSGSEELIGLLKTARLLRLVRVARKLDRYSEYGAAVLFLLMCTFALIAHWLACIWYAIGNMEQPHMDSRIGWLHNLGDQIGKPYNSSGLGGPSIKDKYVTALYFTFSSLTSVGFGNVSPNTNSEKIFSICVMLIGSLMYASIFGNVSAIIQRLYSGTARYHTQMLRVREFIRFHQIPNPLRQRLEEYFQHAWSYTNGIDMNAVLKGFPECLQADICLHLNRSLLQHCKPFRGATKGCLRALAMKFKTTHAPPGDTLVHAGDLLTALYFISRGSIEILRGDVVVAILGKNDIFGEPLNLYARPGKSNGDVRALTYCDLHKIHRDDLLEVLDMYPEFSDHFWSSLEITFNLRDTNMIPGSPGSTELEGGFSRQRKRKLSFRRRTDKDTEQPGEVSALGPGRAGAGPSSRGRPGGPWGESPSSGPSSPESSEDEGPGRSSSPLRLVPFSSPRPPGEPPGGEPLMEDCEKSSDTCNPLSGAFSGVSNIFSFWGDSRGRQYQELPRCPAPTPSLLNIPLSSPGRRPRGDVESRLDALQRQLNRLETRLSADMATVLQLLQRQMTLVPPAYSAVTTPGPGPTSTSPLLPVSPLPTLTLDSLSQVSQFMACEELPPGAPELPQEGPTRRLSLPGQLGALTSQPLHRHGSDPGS
# test.summary: primary screen, population patch clamp on CHO cells stably expressing hERG; higher = less effect of the substance
Among all 310,000 compounds or so, about 2,200 (0.71%) showed an effect of 50% or more. The effect is printed as a negative number. The list comes from a sample in which strong results are over-represented; it also holds close analogues and randomly drawn compounds.
reported.property: hERG current change (%, negative = inhibition) at 1uM (%)

>>> measured("O=C(c1sc2ccccc2c1Cl)N1CCN(c2ncccn2)CC1")
6.43
>>> measured("Cc1ccc(Cc2cc(C)n[nH]c2=O)cc1")
27.1
>>> measured("COc1ccc(C(=O)Nc2c(C)ccc3nsnc23)cc1[N+](=O)[O-]")
3.23
>>> measured("CCN(CC(=O)Nc1ccc(NC(C)=O)cc1)C(=O)COc1ccccc1-c1ccccc1")
12
>>> measured("CCOC(=O)c1c(NC(=O)CCS(=O)(=O)c2ccccc2)sc2c1CCN(C)C2.Cl")
-9.18
>>> measured("CC(O)[C@H]1CNCCN1CCc1cccc2ccccc12 (some centres unmarked)")
5.81
>>> measured("Cc1ccc(NC(=S)NNC(=O)Cn2nc(C(F)F)cc2C(F)F)cc1")
13.6
>>> measured("CC(C)CNS(=O)(=O)c1ccc(NC(=O)Cn2nc(-c3ccc(F)cc3)ccc2=O)cc1")
7.17
>>> measured("CC(C)C(Sc1nc(-c2ccccc2)cc(-c2ccccc2)c1C#N)C(=O)O (centres unmarked)")
9.23
>>> measured("CC(c1ccncn1)N(C)C(=O)c1ccc2oc(Cc3ccccc3)nc2c1 (centres unmarked)")
9.8
>>> measured("Cc1ccc(-c2cc(C(=O)Nc3ccc(S(=O)(=O)Nc4onc(C)c4C)cc3)[nH]n2)c(O)c1")
-1.84
>>> measured("Cn1c(OCc2ccco2)nc2c1c(=O)n(Cc1ccc(Cl)c(Cl)c1)c(=O)n2C")
6.62
>>> measured("CCOC(=O)c1c(NC(=O)CCS(=O)(=O)c2ccccc2)sc2c1CCN(C(C)C)C2.Cl")
-64.6
>>> measured("CC(C)N1CCc2c(sc(NC(=O)CCS(=O)(=O)c3ccccc3)c2C(N)=O)C1.Cl")
-2.04
>>> measured("Cc1nc2c(n1C1CCCCC1)C(=O)c1ccccc1C2=O")
19.1
>>> measured("Cc1ccc(N2C(=O)/C(=C/N3CCN(C(=O)c4ccco4)CC3)C(=O)NC2=S)cc1C")
1.67
>>> measured("O=C(Nc1cccc(F)c1)Nc1ccccn1")
16

====

# assayed.target: human ether-à-go-go-related gene (hERG) potassium channel (human)
# test.summary: primary screen, population patch clamp on CHO cells stably expressing hERG; higher = less effect of the substance
# Source text: Briefly, Chinese hamster ovary (CHO) cells stably expressing the hERG channel were dislodged from tissue culture flasks and dispensed into PPC plates. […] Small molecule effects on hERG current density were quantified by […].
Hit rate of the full screen: of about 310,000 compounds, about 2,200 (0.71%) showed an effect of 50% or more. The effect is printed as a negative number. For the sample, strong results were picked, then their nearest neighbours and some compounds at random.
reported.property: hERG current change (%, negative = inhibition) at 1uM (%)

>>> measured("CCn1c(=O)c(C(=O)CN2CCOCC2)c(N)n(Cc2ccccc2)c1=O")
-0.674
>>> measured("O=C(N/C(=C/c1cccs1)C(=O)N1CCOCC1)c1ccco1")
9.85
>>> measured("O=C(C[n+]1cccc(C(=O)Nc2ccccc2)c1)c1ccc([N+](=O)[O-])cc1.[Br-]")
-61
>>> measured("Cc1cc(-c2ccc(C)c(S(=O)(=O)Nc3cc(C)on3)c2)on1")
1.77
>>> measured("COc1ccc(OC)c(NC(=O)CSc2nc(=O)n(Cc3ccccn3)c3c2CCC3)c1")
-2.43
>>> measured("Cc1ccc(NC(=O)/C(=C/c2cccs2)NC(=O)c2ccco2)cc1")
17
>>> measured("Cc1ccccc1NC(=O)/C(=C\\c1cccs1)NC(=O)c1ccco1")
-3.3

====

# assayed.target: human ether-à-go-go-related gene (hERG) potassium channel (human, UniProt Q12809)
# test.summary: primary screen, population patch clamp on CHO cells stably expressing hERG; higher = less effect of the substance
Among all 310,000 compounds or so, about 2,200 (0.71%) showed an effect of 50% or more. Effects have a minus sign here. The full list was thinned out, with strong results kept by preference.
# hERG current change (%, negative = inhibition) at 1uM per record follows
reported.property: hERG current change (%, negative = inhibition) at 1uM (%)

>>> measured("CN(C)CCNc1oc(COc2cccc(Cl)c2)nc1C#N")
-4.66
>>> measured("Cc1ccc(Cn2c(C3CCCN3c3nc(C)cs3)nc3cc(C(F)(F)F)ccc32)cc1 (centres unmarked)")
8.04
>>> measured("Cc1sc2ncnc(NCCN3CCOCC3)c2c1C.O=C(O)C(=O)O")
9.44
>>> measured("CCOC(=O)N1CCN(Cc2cc(=O)oc3cc4c(cc23)CCC4)CC1")
-3.49
>>> measured("C=CCNC(=O)c1c(Cl)cccc1Cl")
6.34

====

# assayed.target: human ether-à-go-go-related gene (hERG) potassium channel (human)
# test.summary: primary screen, population patch clamp on CHO cells stably expressing hERG; higher = less effect of the substance
Among all 310,000 compounds or so, about 2,200 (0.71%) showed an effect of 50% or more. The effect is printed as a negative number. Only a selection was taken, and strong results are over-represented in it overall.
reported.property: hERG current change (%, negative = inhibition) at 1uM

>>> measured("CN(Cc1ccc(-n2cccn2)cc1)Cc1cn(C)nc1-c1ccccc1F")
"-63.5%"
>>> measured("O=C(CSc1nc2ccccc2c(=O)n1Cc1ccco1)NCc1ccco1")
"-40.8%"
>>> measured("O=C(CSc1nc2ccccc2c(=O)n1Cc1ccco1)N1CCN(c2ccccc2)CC1")
"-83.6%"
>>> measured("O=C(COc1ccccc1)N(Cc1ccco1)c1ccc(O)cc1")
"8.59%"
>>> measured("O=C(O)C1CCCN1c1nc(-c2ccc(Cl)c(Cl)c2)cc(C(F)(F)F)n1 (centres unmarked)")
"7.97%"
